System: KM-20L2
assay_method_text: NCI tumour cell line growth inhibition, 48 h
The source made the active and inactive calls. Cut-off read from the data, not from the text of the source: active = GI50 up to about 1.1 µM and inactive = higher.
Possible outcomes: 1 (active), -1 (inactive)

INSERT INTO assay_data (molecule, cat) VALUES
  ('NC(=O)/N=C1/CCC2C3CCCC2C13', -1),
  ('O=C1CCC(NC(=O)Cc2ccc(O)cc2)C(=O)N1 (stereo not drawn)', -1),
  ('O=c1oc2ccccc2[n+]([O-])c1-c1ccccc1', -1),
  ('COc1cc2c(cc1C)[n+]([O-])c(C)c(C(=O)C/C(=N/NC(=O)C[N+](C)(C)C)C(=O)Nc1cccc(Cl)c1C)[n+]2[O-]', -1),
  ('CC[C@]1(O)C(=O)OCc2c1cc1n(c2=O)Cc2cc3c(N)cccc3nc2-1', -1),
  ('COc1cc2c(c(O)c1O)-c1ccc(OC)c(=O)cc1C(NC(C)=O)CC2 (stereo not drawn)', -1),
  ('Cc1c2cc[n+](C)cc2c(C)c2c1[nH]c1ccc(O)c(OCC(F)(F)F)c12', -1),
  ('Cc1ccc(C2CC(c3cccc([N+](=O)[O-])c3)=Nc3ccccc3S2)cc1 (stereo not drawn)', -1),
  ('CC[C@@]1(O)C(=O)OCc2c1cc1n(c2=O)Cc2cc3ccccc3nc2-1', 1),
  ('Cc1c2cc[n+](C)cc2c(C)c2c1[nH]c1ccc(OCC(F)(F)F)cc12', -1),
  ('COc1ccc(C(=C(C#N)C#N)c2ccc(OC)cc2)cc1', -1),
  ('CC(C)N1CC2CC(CN(C(=O)c3ccc(Cl)cc3)C2)C1', -1),
  ('CC(=O)OC1CC2CCN3C(=O)c4cc5c(cc4[C@H](C1OC(C)=O)C23)OCO5 (stereo partly drawn)', -1),
  ('CCOC(=O)C1CCn2c(nc3c2c(=O)n(C)c(=O)n3C)S1 (stereo not drawn)', -1),
  ('CN(CCN1C(=O)c2cc([N+](=O)[O-])cc3cc([N+](=O)[O-])cc(c23)C1=O)CCN1C(=O)c2cc([N+](=O)[O-])cc3cc([N+](=O)[O-])cc(c23)C1=O', 1),
  ('CCOc1ccc(NC(=O)/C(=C/c2ccccc2)C(C)=O)cc1', -1),
  ('C=CCC12CCC(=O)[C@@]1(C)CC=C(O)C2=O (stereo partly drawn)', -1),
  ('CN(C)/N=N/c1ccccc1', -1),
  ('O=C(Nc1c(Cl)cc([N+](=O)[O-])cc1Cl)C(=O)C(C(=O)c1ccncc1)C1OC(=O)c2ccccc21 (stereo not drawn)', -1),
  ('CCN(CC)CC(O)CNc1ccc(NCC2CO2)c2c1C(=O)c1ccccc1C2=O (stereo not drawn)', 1),
  ('Cc1cc(O)nc(CNC(=O)c2ccc3ccccc3c2)n1', -1),
  ('C=C1C(=O)OC2C1C(OC(=O)/C(=C/C)COC(C)=O)CC1(CO1)C1C(OC(=O)/C(=C/C)CO)C=C(C)C21 (stereo not drawn)', -1),
  ('OC(C1CO1)C(O)C1CO1 (stereo not drawn)', -1),
  ('O=C(CC(=O)n1nc(-c2ccccc2)c(/N=N/c2ccc([N+](=O)[O-])cc2)c1-c1ccccc1)Nc1ccc(Cl)cc1', -1),
  ('O=C1CC[C@H](NC(=O)Cc2ccccc2)C(=O)N1 [ANTINEOPLASTON A10]', -1),
  ('CC1CC(C[N+](=O)[O-])CC2(C1)OCCO2 (stereo not drawn)', -1),
  ('O=C1NC(O)CCN1C1OC(CO)C(O)C1O (stereo not drawn)', -1),
  ('CCNc1c(C(=O)N(CC)CC)c(=O)[nH]c2ncccc12', -1);

* * *

Each record here notes measured GI50.
Tested on: HOP-92
assay_method_text: NCI tumour cell line growth inhibition, 48 h
Activity calls are given as the source filed them. No stated cut-off is given here; in the data, active = GI50 up to about 1.1 µM and inactive = higher.
metric_name: GI50

INSERT INTO measurements (compound, system_tested, endpoint_result) VALUES
  ('CC(C)C(=O)/C=C/c1ccc(Cl)c(Cl)c1', 'HOP-92', '17.4 µM (inactive)'),
  ('Cc1cc(=O)c2c([nH]1)NS(=O)(=O)NC2=O', 'HOP-92', '> 100 µM (inactive)'),
  ('CCN1C2=NC(=O)N(C)C(=O)C2(Cl)C(C(SC)S(=O)(=O)c2ccc(C)cc2)c2ccccc21 (stereo unspecified)', 'HOP-92', '30.6 µM (inactive)'),
  ('COC(=O)NCCc1n[nH]c2c1C(=O)C=C(OC)C2=O', 'HOP-92', '21.5 µM (inactive)'),
  ('CC/C=C\C/C=C\C/C=C\CCCCCCCC(=O)OC [METHYL LINOLENATE]', 'HOP-92', '> 100 µM (inactive)'),
  ('COc1ccc2cc3c4cc5c(cc4cc[n+]3cc2c1OC)OCO5', 'HOP-92', '18.1 µM (inactive)'),
  ('N/C(=N\N/C=C1\C=Nc2cc(C(F)(F)F)ccc2C1=O)NO', 'HOP-92', '> 10 µM (inactive)'),
  ('CN(C)C(=S)SN(C)C(=O)Nc1ccccc1', 'HOP-92', '3.5 µM (inactive)'),
  ('Cn1ncc2c(Cl)ncnc21', 'HOP-92', '> 100 µM (inactive)'),
  ('COc1ccc(/C=C/C(=O)c2nc3ccccc3[nH]2)cc1', 'HOP-92', '14 µM (inactive)'),
  ('CC(=O)Oc1ccc(/C=C/C(=O)O[C@H]2CCCC[C@@H]2OC(=O)/C=C/c2ccc(OC(C)=O)c(OC(C)=O)c2)cc1OC(C)=O', 'HOP-92', '4.62 µM (inactive)'),
  ('O=C(C(=O)n1ncc(Cl)c(Cl)c1=O)n1ncc(Cl)c(Cl)c1=O', 'HOP-92', '23.2 µM (inactive)'),
  ('Oc1ccc2c(c1)OCC1(O)Cc3cc(O)c(O)cc3C21 (stereo unspecified)', 'HOP-92', '21.6 µM (inactive)'),
  ('C(=C\c1c2oc(-c3ccccc3)cc(-c3ccccc3)c-2c2ccccc12)/C=C1\c2ccccc2-c2c(-c3ccccc3)cc(-c3ccccc3)[o+]c21.[O-][Cl+3]([O-])([O-])[O-]', 'HOP-92', '> 100 µM (inactive)'),
  ('C[n+]1c2ccccc2n2c3ccccc3c(NCCCN3CCOCC3)c(C#N)c21', 'HOP-92', '62.8 µM (inactive)'),
  ('CC(C)C1=CC23CCC4C(C)(C(=O)O)CCCC4(C)C2CC1C(C(=O)O)C3C(=O)O (stereo unspecified)', 'HOP-92', '> 100 µM (inactive)'),
  ('CCN(CC)CC(O)CNc1ccc(NCC2CO2)c2c1C(=O)c1ccccc1C2=O (stereo unspecified)', 'HOP-92', '1.75 µM (inactive)'),
  ('CC(=O)NNc1nc(C)c(C(/C=C/c2ccccc2O)=N/N=C(N)N)s1', 'HOP-92', '> 100 µM (inactive)'),
  ('Nc1ccccc1C(=O)/C=C/c1c(O)ccc2ccccc12', 'HOP-92', '> 100 µM (inactive)'),
  ('COC(=O)C(F)C(Br)C(=O)OC (stereo unspecified)', 'HOP-92', '2.56 µM (inactive)'),
  ('CC(SC(=S)N1CCOCC1)c1cc2oc(=O)n(C)c2cc1Cl (stereo unspecified)', 'HOP-92', '> 10 µM (inactive)');

* * *

System: NCI-H23
assay_method_text: NCI tumour cell line growth inhibition, 48 h
The source made the active and inactive calls. No stated cut-off is given here; in the data, active = GI50 up to about 1.1 µM and inactive = higher.
metric_name: GI50

INSERT INTO assay_data (compound, metric_name, endpoint_result) VALUES
  ('CC[C@@H](/C=C\CCC(=O)C[C@H](O)CCC=C(C)C)O[Si](C(C)C)(C(C)C)C(C)C', 'GI50', '> 100 µM (inactive)'),
  ('COc1ccc(/C=C(\C(C)=O)C(=O)Nc2ccccc2)cc1', 'GI50', '> 100 µM (inactive)'),
  ('CC(=O)c1csc2c1C(=O)c1scc(C(C)=O)c1C2=O', 'GI50', '1.37 µM (inactive)'),
  ('Cc1cc(C)c(-n2c(-c3ccccc3)cs/c2=N\N=C2C=C(C(C)(C)C)C(=O)C(C(C)(C)C)=C2)c(C)c1', 'GI50', '60.5 µM (inactive)'),
  ('CCOC(=O)C12CCCC1(O)N(NC(N)=O)C(C)=C2C(=O)OC (stereo not given)', 'GI50', '> 100 µM (inactive)'),
  ('CNC(=O)C(C)NC(=O)C(Cc1ccccc1)NC(=O)c1ccccc1 (stereo not given)', 'GI50', '> 100 µM (inactive)'),
  ('N#C/C(C(=S)Nc1ccccc1)=C(/N)N1CCCC1', 'GI50', '> 100 µM (inactive)'),
  ('COC(=O)/C(=N/NC(N)=O)C(C(=O)C(=O)Nc1ccc(C)cc1)c1nc2ccc(C(=O)c3ccccc3)cc2nc1O (stereo not given)', 'GI50', '> 100 µM (inactive)'),
  ('COC(=O)C1C=CCON2CCc3c(n(S(=O)(=O)c4ccccc4)c4ccccc34)C12 (stereo not given)', 'GI50', '> 90.4 µM (inactive)'),
  ('COC1=CC(=O)C[C@@H](C)[C@]12Oc1c(Cl)c(OC)cc(OC)c1C2=O [GRISEOFULVIN]', 'GI50', '42.1 µM (inactive)');
